system: HL-60(TB) leukemia; test: NCI-60 one-dose screen, 48 h; details: 10 µM unless noted
The panel holds about 83,000 compounds, 20% with a hit somewhere; the sample as a whole holds those more often. The source made the active and inactive calls. Rule for the calls: active = growth percent below 10; inactive = the rest.
Pick one and only one: True = active, False = inactive

[
  {
    "compound": "COc1ccc(/C(C)=C(\\c2ccc(Cl)cc2)c2ccc(OCCN3CCCC3)cc2)cc1F",
    "class.label": "True"
  },
  {
    "compound": "c1ccc(-c2nc([P+](c3ccccc3)(c3ccccc3)c3ccccc3)c(N3CCOCC3)o2)cc1",
    "class.label": "True"
  },
  {
    "compound": "COc1ccc(C(=O)C(C)C)c2ccccc12",
    "class.label": "False"
  },
  {
    "compound": "COC(CCP(=O)(c1ccccc1)c1ccccc1)(C(=O)c1ccccc1)c1ccccc1 (stereo not given)",
    "class.label": "True"
  }
]

Q) Short answer needed: outcome of this test for COc1cc(C2CC(=O)Nc3c2cnn3C)cc(OC)c1OC (stereo not given) ?
A) False
